- Test system: NCI-H522
- protocolDescription: NCI tumour cell line growth inhibition, 48 h
The source made the active and inactive calls. No stated cut-off is given here; in the data, active = GI50 up to about 1.1 µM and inactive = higher.
Form entry, call: pick from true (1) = active, false (0) = inactive

Answered examples (5):
COc1cc2c(cc1C1=NC(C)(C)CO1)OCO2 = false (0)
Cc1ccccc1OC(C)C(=O)NN1C(=O)CC(=O)N(c2ccc(Cl)cc2)C1=S (stereo unspecified) = false (0)
Cc1ccc2c(ccc3c[n+]4ccccc4c(C)c32)c1.[O-][Cl+3]([O-])([O-])[O-] = false (0)
COC12C=CC(C=C1C#N)CC2.COC12C=CC(CC1)CC2=O (stereo unspecified) = false (0)
CN1CCC(C(=O)NNc2ccccc2)CC1 = false (0)

Turning to the following molecule.
**Query** What was the test verdict on C=C1C(=O)O[C@H]2C[C@@H](C)[C@@H]3CC(=O)OC[C@@]3(C)CC12 (stereo partly specified) ?
**Result** false (0)
